# Activity annotations
Molecular target: Adenosine receptor A2a (Homo sapiens)
Experiment: Displacement of [3H]ZM241385 from human adenosine A2A receptor expressed in HEK293 cell membrane at 1 uM preincubated for 4 hrs followed by [3H]ZM241385 addition and measured after 0.5 hrs by radioligand displacement assay
Assay type: cell membranes
Details: time 4.5 hrs
Test Readout: Activity (%)

[[record]]
structure_smiles_string = "CCCn1c(=O)[nH]c2nc(-c3ccc(OS(=O)(=O)F)cc3)[nH]c2c1=O"
measurement = 24

[[record]]
structure_smiles_string = "CCCn1c(=O)c2[nH]c(-c3ccc(N=C=S)cc3)nc2n(CCC)c1=O"
measurement = 39

[[record]]
structure_smiles_string = "CCCn1c(=O)c2[nH]c(-c3cccc(S(=O)(=O)F)c3)nc2n(CCC)c1=O"
measurement = 23

[[record]]
structure_smiles_string = "CCCn1c(=O)c2[nH]c(-c3cccc(OS(=O)(=O)F)c3)nc2n(CCC)c1=O"
measurement = 12

[[record]]
structure_smiles_string = "CCCn1c(=O)[nH]c2nc(-c3cccc(N=C=S)c3)[nH]c2c1=O"
measurement = 6

[[record]]
structure_smiles_string = "CCCn1c(=O)[nH]c2nc(-c3cccc(OS(=O)(=O)F)c3)[nH]c2c1=O"
measurement = 0

[[record]]
structure_smiles_string = "CCCn1c(=O)c2[nH]c(-c3ccc(OS(=O)(=O)F)cc3)nc2n(CCC)c1=O"
measurement = 69

[[record]]
structure_smiles_string = "CCCn1c(=O)[nH]c2nc(-c3ccc(S(=O)(=O)F)cc3)[nH]c2c1=O"
measurement = 43

[[record]]
structure_smiles_string = "CCCn1c(=O)c2[nH]c(-c3cccc(N=C=S)c3)nc2n(CCC)c1=O"
measurement = 34

[[record]]
structure_smiles_string = "CCCn1c(=O)[nH]c2nc(-c3cccc(S(=O)(=O)F)c3)[nH]c2c1=O"
measurement = 6

[[record]]
structure_smiles_string = "CCCn1c(=O)c2[nH]c(-c3ccc(S(=O)(=O)F)cc3)nc2n(CCC)c1=O"
measurement = 55

[[record]]
structure_smiles_string = "CCCn1c(=O)[nH]c2nc(-c3ccc(N=C=S)cc3)[nH]c2c1=O"
measurement = 27


* * *

Biological target: UniProtKB P0DMS8
Sequence (whole entry): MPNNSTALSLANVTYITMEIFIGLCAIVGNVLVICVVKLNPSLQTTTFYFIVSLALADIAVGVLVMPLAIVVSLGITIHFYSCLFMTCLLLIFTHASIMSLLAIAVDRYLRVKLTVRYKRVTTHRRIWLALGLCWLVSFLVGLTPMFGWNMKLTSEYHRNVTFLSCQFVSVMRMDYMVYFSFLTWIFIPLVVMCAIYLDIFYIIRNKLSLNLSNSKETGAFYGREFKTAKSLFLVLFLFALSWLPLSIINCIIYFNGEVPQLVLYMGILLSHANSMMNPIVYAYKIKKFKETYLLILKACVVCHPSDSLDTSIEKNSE
Experiment: Displacement of [3H]PSB-11 from human adenosine A3 receptor expressed in CHO cell membrane at 1 uM and measured after 0.5 hrs by radioligand displacement assay
Type: cell membranes
Classes (Activity): bin A (below 10%), bin B (10% to below 50%), bin C (50% or more)

[[record]]
structure_smiles_string = "CCCn1c(=O)[nH]c2nc(-c3cccc(OS(=O)(=O)F)c3)[nH]c2c1=O"
classification = "bin B"

[[record]]
structure_smiles_string = "CCCn1c(=O)[nH]c2nc(-c3cccc(N=C=S)c3)[nH]c2c1=O"
classification = "bin C"

[[record]]
structure_smiles_string = "CCCn1c(=O)[nH]c2nc(-c3ccc(S(=O)(=O)F)cc3)[nH]c2c1=O"
classification = "bin A"

[[record]]
structure_smiles_string = "CCCn1c(=O)c2[nH]c(-c3ccc(OS(=O)(=O)F)cc3)nc2n(CCC)c1=O"
classification = "bin B"

[[record]]
structure_smiles_string = "CCCn1c(=O)c2[nH]c(-c3ccc(S(=O)(=O)F)cc3)nc2n(CCC)c1=O"
classification = "bin B"

[[record]]
structure_smiles_string = "CCCn1c(=O)[nH]c2nc(-c3ccc(OS(=O)(=O)F)cc3)[nH]c2c1=O"
classification = "bin A"

[[record]]
structure_smiles_string = "CCCn1c(=O)[nH]c2nc(-c3ccc(N=C=S)cc3)[nH]c2c1=O"
classification = "bin B"

[[record]]
structure_smiles_string = "CCCn1c(=O)c2[nH]c(-c3cccc(OS(=O)(=O)F)c3)nc2n(CCC)c1=O"
classification = "bin C"

[[record]]
structure_smiles_string = "CCCn1c(=O)c2[nH]c(-c3cccc(S(=O)(=O)F)c3)nc2n(CCC)c1=O"
classification = "bin B"

[[record]]
structure_smiles_string = "CCCn1c(=O)[nH]c2nc(-c3cccc(S(=O)(=O)F)c3)[nH]c2c1=O"
classification = "bin B"

[[record]]
structure_smiles_string = "CCCn1c(=O)c2[nH]c(-c3cccc(N=C=S)c3)nc2n(CCC)c1=O"
classification = "bin C"

[[record]]
structure_smiles_string = "CCCn1c(=O)c2[nH]c(-c3ccc(N=C=S)cc3)nc2n(CCC)c1=O"
classification = "bin B"

